# test_system: Drosophila OR85b (Drosophila melanogaster, UniProt Q9VHQ7)
# Construct: expressed in transfected cells
# Sequence (Q9VHQ7 whole entry): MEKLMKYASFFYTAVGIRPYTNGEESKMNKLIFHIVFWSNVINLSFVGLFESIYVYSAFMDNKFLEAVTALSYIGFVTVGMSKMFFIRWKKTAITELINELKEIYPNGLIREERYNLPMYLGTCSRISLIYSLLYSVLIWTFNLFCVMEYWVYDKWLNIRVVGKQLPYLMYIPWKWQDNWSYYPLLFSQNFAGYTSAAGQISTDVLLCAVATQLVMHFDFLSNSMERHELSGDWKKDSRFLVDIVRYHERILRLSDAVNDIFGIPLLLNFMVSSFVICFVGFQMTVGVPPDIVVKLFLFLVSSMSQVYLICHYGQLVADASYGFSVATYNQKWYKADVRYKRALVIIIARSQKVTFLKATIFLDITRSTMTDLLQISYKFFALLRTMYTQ
# Sequence (Q9VNB5 whole entry partner): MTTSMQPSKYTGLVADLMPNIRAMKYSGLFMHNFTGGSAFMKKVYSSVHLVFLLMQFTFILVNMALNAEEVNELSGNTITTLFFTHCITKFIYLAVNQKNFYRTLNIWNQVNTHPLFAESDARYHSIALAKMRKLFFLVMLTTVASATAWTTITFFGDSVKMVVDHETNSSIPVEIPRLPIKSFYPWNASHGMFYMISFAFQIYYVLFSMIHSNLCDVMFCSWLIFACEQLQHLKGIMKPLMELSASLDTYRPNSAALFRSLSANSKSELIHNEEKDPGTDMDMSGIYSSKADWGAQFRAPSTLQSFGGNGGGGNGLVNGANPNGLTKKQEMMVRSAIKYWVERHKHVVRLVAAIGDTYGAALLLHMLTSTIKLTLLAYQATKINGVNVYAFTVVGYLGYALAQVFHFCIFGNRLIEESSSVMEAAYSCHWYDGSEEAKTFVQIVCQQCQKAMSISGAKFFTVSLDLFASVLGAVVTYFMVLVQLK
# experiment_description: Calcium ion fluorescence (GCaMP6) assay, OR85b stable HEK293 cell line
# Type: cell-based
# applied_conditions: OR85b cell line; cc. 10 µM; VUAA1-normalized response, mean of biological replicates
// label = met if Average response is not less than 0.04, otherwise not met

In [3]: df
Out[3]:
                                    compound  class_name
 0           CCCCCC(=O)OCC [ethyl hexanoate]         met
 1         CCOC(=O)c1ccccc1 [ethyl benzoate]     not met
 2                          Cc1ccc(C(C)C)cc1         met
 3                       C=CCc1ccc(O)c(OC)c1     not met
 4                               O=Cc1ccccc1     not met
 5               CCCOC(C)=O [propyl acetate]     not met
 6             CC(C)=CCC/C(C)=C/CC/C(C)=C/CO         met
 7        C=CC(O)C/C=C\CC (centres unmarked)         met
 8  C=C1[C@H]2CC[C@@H]3[C@H]2C(C)(C)CCC[C@]13C [(+)-longifolene]         met
 9         COC(=O)c1ccccc1 [methyl benzoate]     not met
10                              CCCCCCCCCC=O     not met
11             CCOC(=O)CC [ethyl propionate]     not met
12                               CCCCCCCCCCC         met
13                                CCCCC(C)=O         met
14                 CC1=CC[C@@H](C(C)(C)O)CC1     not met
15      C=C1CCC2CC1C2(C)C (centres unmarked)         met
16    C=CC(C)(O)CCC=C(C)C (centres unmarked)     not met
17               CCCCOC(C)=O [butyl acetate]     not met
18  CC1=CCC23CC1C(C)(C)C2CCC3C (centres unmarked)     not met

---

# test_system: Drosophila OR10a (Drosophila melanogaster, UniProt Q9VYZ1)
# Construct: expressed in transfected cells
# Sequence (Q9VYZ1 whole entry, one chain of several): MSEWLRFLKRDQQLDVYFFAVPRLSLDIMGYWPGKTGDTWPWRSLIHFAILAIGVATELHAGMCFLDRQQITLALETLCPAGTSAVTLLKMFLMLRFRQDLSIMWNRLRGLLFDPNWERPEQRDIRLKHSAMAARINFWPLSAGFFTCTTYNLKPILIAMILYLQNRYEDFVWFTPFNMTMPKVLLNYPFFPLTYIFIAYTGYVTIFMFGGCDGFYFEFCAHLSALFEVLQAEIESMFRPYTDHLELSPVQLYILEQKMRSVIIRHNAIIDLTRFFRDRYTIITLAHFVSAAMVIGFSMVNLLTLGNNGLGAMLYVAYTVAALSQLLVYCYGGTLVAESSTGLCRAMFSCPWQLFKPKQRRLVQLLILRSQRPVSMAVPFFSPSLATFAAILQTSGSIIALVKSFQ
# experiment_description: Calcium ion fluorescence (GCaMP6) assay, OR10a stable HEK293 cell line
# Type: cell-based
# applied_conditions: HEK293, read-out: OR10a response (VUAA1-normalized response), VOC concentration 10 μM
# Protocol: These VUAA1 normalized ∆F values were used to compare the different receptors and ligands. The concentration-dependent effect of the reference ligands on their cognate cell lines was examined in more detail. Twelve different ligand concentrations were measured on each cell line in an overall 0.01 μM to 100 μM concentration range with 5 repetitions with three technical replicates each time. […]
Entries and their activation at 10 µM
measured_quantity: activation at 10 µM (%)

In [3]: df
Out[3]:
                                    molecule    measured_quantity  quantity_unit  data_value
 0         CCOC(=O)c1ccccc1 [ethyl benzoate]  activation at 10 µM              %          45
 1                     CCCCCCCO [1-heptanol]  activation at 10 µM              %        6.57
 2    COc1cccc(OC)c1 [1,3-dimethoxy benzene]  activation at 10 µM              %           0
 3  CC1=CCC2C(C1)C2(C)C (stereo not drawn) [3-carene]  activation at 10 µM              %           0
 4                   CCCCC(C)=O [2-hexanone]  activation at 10 µM              %           0
 5  CCCCC(C)O (stereo not drawn) [2-hexanol]  activation at 10 µM              %           0
 6  CCCCCC(C)O (stereo not drawn) [2-heptanol]  activation at 10 µM              %        7.54
 7           CCCCCC(=O)OCC [ethyl hexanoate]  activation at 10 µM              %           0
 8              CCCC(=O)OCC [ethyl butyrate]  activation at 10 µM              %           0
 9             Cc1cccc(O)c1 [3-methylphenol]  activation at 10 µM              %           6
10  CC1=CC[C@@H](C(C)(C)O)CC1 [alpha-terpineol]  activation at 10 µM              %           0
11  C=C1CCC2CC1C2(C)C (stereo not drawn) [beta-pinene]  activation at 10 µM              %           0
12  C=C1CC/C=C(\C)CC[C@@H]2[C@@H]1CC2(C)C [(-)-trans-caryophyllene]  activation at 10 µM              %          20
13                       CCCCCO [1-pentanol]  activation at 10 µM              %           0
14             C=CCc1ccc(O)c(OC)c1 [eugenol]  activation at 10 µM              %           6
15  CCCCCC(O)CC (stereo not drawn) [3-octanol]  activation at 10 µM              %           6
16  CCCC(O)CC (stereo not drawn) [3-hexanol]  activation at 10 µM              %           0
17        CC(=O)OCCC(C)C [isopentyl acetate]  activation at 10 µM              %          19
18                 CCCCCC(=O)CC [3-octanone]  activation at 10 µM              %          10
19  C=C1CC[C@H]2O[C@]2(C)CC[C@@H]2[C@@H]1CC2(C)C [(-)-caryophyllene oxide]  activation at 10 µM              %           0
20             CCOC(=O)CC [ethyl propionate]  activation at 10 µM              %           0
21                 CCCCCC(C)=O [2-heptanone]  activation at 10 µM              %           0
22          CC(=O)OCC(C)C [isobutyl acetate]  activation at 10 µM              %           0
23           CCCCOC(=O)CC [butyl propanoate]  activation at 10 µM              %           0
24             CC(=O)c1ccccc1 [acetophenone]  activation at 10 µM              %           0
25                    CCCCCCCCCC=O [decanal]  activation at 10 µM              %           0
26               CCCCOC(C)=O [butyl acetate]  activation at 10 µM              %           0
